tested on: water hyacinth; test: Experiment 5 foliar application to water hyacinths; format: in vivo, Eichhornia crassipes Solms; conditions: 0.1%; 3 months; also: key: -: no reproduction, namely complete suppression of reproduction; ±: remarkable suppression of reproduction; +: considerable suppression of reproduction; ++: medium supprestion of reproduction; +++: no suppression of reproduction
Structures can show the parent of a compound that is named as a salt.
MEASUREMENT_KIND: Reproduction-inhibiting effect

compound="CP(=O)(O)CC[C@H](N)C(=O)O [L-AMPB monopotassium salt]" reported_measurement=±
compound="CP(=O)(O)CC[C@H](N)C(=O)O [L-AMPB dipotassium salt]" reported_measurement=±
compound="CP(=O)(O)CCC(N)C(=O)O (racemic) [DL-AMPB monopotassium salt]" reported_measurement=++
compound="CP(=O)(O)CCC(N)C(=O)O (racemic) [DL-AMPB choline]" reported_measurement=+
compound="CP(=O)(O)CCC(N)C(=O)O (racemic) [DL-AMPB diammonium salt]" reported_measurement=++
compound="CP(=O)(O)CC[C@H](N)C(=O)O [L-AMPB monoisopropylammonium salt]" reported_measurement=±
compound="C[C@H](NC(=O)[C@H](C)NC(=O)[C@@H](N)CCP(C)(=O)O)C(=O)O [SF-1293 monodiisopropylammonium salt]" reported_measurement=+
compound="CP(=O)(O)CCC(N)C(=O)O (racemic) [DL-AMPB monoisopropylammonium salt]" reported_measurement=++
compound="C[C@H](NC(=O)[C@H](C)NC(=O)[C@@H](N)CCP(C)(=O)O)C(=O)O [SF-1293]" reported_measurement=+
